- tested-target: EPHB2 (UniProt P29323)
- Sequence (P29323 whole entry, looked up): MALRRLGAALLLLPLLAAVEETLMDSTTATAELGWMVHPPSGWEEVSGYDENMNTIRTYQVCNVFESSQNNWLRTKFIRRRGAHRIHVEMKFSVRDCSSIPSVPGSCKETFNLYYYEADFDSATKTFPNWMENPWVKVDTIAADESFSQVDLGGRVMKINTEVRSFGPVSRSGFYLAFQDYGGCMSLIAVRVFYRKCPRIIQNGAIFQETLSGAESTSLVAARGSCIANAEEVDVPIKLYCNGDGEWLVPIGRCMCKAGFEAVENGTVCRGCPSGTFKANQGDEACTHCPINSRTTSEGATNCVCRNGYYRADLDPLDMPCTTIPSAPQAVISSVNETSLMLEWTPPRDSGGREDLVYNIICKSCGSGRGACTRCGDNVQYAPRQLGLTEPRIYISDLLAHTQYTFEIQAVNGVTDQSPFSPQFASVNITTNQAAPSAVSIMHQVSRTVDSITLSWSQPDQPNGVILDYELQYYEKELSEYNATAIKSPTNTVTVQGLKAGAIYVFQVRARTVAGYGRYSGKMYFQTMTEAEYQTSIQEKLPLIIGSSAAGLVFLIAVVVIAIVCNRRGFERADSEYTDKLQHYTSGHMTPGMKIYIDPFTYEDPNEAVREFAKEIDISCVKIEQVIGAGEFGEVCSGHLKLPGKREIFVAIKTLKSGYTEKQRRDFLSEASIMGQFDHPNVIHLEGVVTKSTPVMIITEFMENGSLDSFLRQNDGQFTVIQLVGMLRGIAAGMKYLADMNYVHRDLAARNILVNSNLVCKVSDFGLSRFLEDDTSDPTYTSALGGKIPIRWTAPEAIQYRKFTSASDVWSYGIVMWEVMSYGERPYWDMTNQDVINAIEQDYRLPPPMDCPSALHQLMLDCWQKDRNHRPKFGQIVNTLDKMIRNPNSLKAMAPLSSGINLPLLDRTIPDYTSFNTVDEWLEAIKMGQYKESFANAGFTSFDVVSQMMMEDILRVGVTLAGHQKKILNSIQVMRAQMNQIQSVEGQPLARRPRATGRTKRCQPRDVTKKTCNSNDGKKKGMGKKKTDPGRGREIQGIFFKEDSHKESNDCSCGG
- measurement-protocol: phosphorylation enrichment, bacterial display (enrichment ratio); higher = better substrate or ligand; peptides without Tyr show the background;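 note: 11-residue human phosphosite peptides and single-mutation variants displayed on the E. coli surface, counted by deep sequencing, each peptide's frequency after selection divided by its frequency in the unselected input library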;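 note: frequency after pTyr selection over input frequency; kinase dosed for 20-30% of maximal phosphorylation in three min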
Categories are assigned from the measured phosphorylation enrichment using these intervals: b0 = under 0.5, b1 = from 0.5 up to 0.7, b2 = 0.7 and over

Past entries and their recorded results:
# classify by phosphorylation enrichment band: SKNSKYNAEST [PSEN1_Y315]
b0

# classify by phosphorylation enrichment band: LLINKYGLSAH [SCP2_Y151]
b1

# classify by phosphorylation enrichment band: EACPSYSHVVL [CHST6_Y168_R166P]
b1

# classify by phosphorylation enrichment band: QCTSHYPEHVC [SART3_Y541_D540H]
b2

# classify by phosphorylation enrichment band: IVEELYAIPPD [PEAK1_Y797_S792I]
b2

# classify by phosphorylation enrichment band: SGDITYGQFAQ [PLCG1_Y210]
b0

# classify by phosphorylation enrichment band: APQFTYTQGGQ [FLNA_Y1763_A1764T_YF]
b1

# classify by phosphorylation enrichment band: CVAARYMDVKG [WFIKKN2_Y93]
b1

# classify by phosphorylation enrichment band: PSSNLYYRCLT [CNGA3_Y168_W171C]
b2

# classify by phosphorylation enrichment band: ISKTWYSAEQF [CD207_Y217_P213S]
b2

Further cases:
# classify by phosphorylation enrichment band: TEYIQYMRRKN [MAX_Y73]
b1

# classify by phosphorylation enrichment band: GVYSRYFTTYD [CLCA1_Y661]
b2

# classify by phosphorylation enrichment band: EQSGSYIWVPA [DLG1_Y895]
b1
